Recorded IC50, one value per entry.
# Test system: hQC (Homo sapiens)
# Protocol summary: Fluorometric assay of glutaminyl cyclase (QC) inhibition, H-Gln-βNA or H-Gln-AMC substrate
# Type: biochemical
# Condition info: read-out: IC50
Property: IC50 (µM)

1) COC(=O)C(C)/N=C1\NC(=O)N(c2ccc3[nH]cnc3c2)C1c1ccccc1 (stereo not shown) : 7.6
2) O=C1N/C(=N/Cn2nnc3ccccc32)C(c2cc3c(cc2Br)OCO3)N1c1ccc2nc[nH]c2c1 (stereo not shown) : 0.4
3) O=C1N/C(=N/CCc2c[nH]c3ccccc23)C(C2CCC=CO2)N1CCCn1ccnc1 (stereo not shown) : 5.8
4) O=C1N/C(=N\C2CCCc3ccccc32)C(c2cccc(Br)c2)N1c1ccc2[nH]cnc2c1 (stereo not shown) : 0.004
5) Fc1ccc(Cl)c(F)c1C1/C(=N/c2c(Cl)cccc2Cl)NC(=S)N1c1ccc2nc[nH]c2c1 (stereo not shown) : 6.7
6) O=C1CCCN1CCC/N=C1/NC(=S)N(c2ccc3[nH]cnc3c2)C1c1ccc2c(c1)OCO2 (stereo not shown) : 6.7
7) O=C1N/C(=N\CCC(c2ccccc2)c2ccccc2)C(c2cc(F)cc(F)c2)N1CCCn1ccnc1 (stereo not shown) : 6.7
8) CC1=CC(C)C(C2/C(=N/C(C)C(C)(C)C)NC(=S)N2c2ccc3nc[nH]c3c2)CC1 (stereo not shown) [Compound 165] : 7.6
9) Cc1ccc(C2/C(=N/C(C)(C)CC(C)(C)C)NC(=S)N2c2ccc3nc[nH]c3c2)c(C)c1 (stereo not shown) : 9.4
10) CCCCC1/C(=N\C2CCCCC2)NC(=O)N1CCCn1ccnc1 (stereo not shown) : 9.1
11) Cc1ccc2c(C3/C(=N\Cc4ccccc4)NC(=O)N3c3ccc4[nH]cnc4c3)c[nH]c2c1 (stereo not shown) : 0.004
12) O=C1N/C(=N\C2CCCC2)C(c2cc(F)cc(F)c2)N1c1ccc2[nH]cnc2c1 (stereo not shown) : 0.4
13) O=C1N/C(=N/Cc2ccc(Cl)cc2)C(c2ccccc2)N1CCCn1ccnc1 (stereo not shown) : 5.8
14) O=C1N/C(=N\C2CCCCC2)C(c2cccc(F)c2F)N1CCCn1ccnc1 (stereo not shown) : 6.8
15) O=C1N/C(=N\C2CCc3ccccc32)CN1c1ccc2[nH]cnc2c1 (stereo not shown) : 4
16) COC(=O)C(C)/N=C1\NC(=S)N(c2ccc3[nH]cnc3c2)C1c1ccc(C)cc1 (stereo not shown) [Compound 249] : 5.8

* * *

# Test system: hQC (Homo sapiens)
# Protocol summary: Fluorometric assay of glutaminyl cyclase (QC) inhibition, H-Gln-βNA or H-Gln-AMC substrate
# Type: biochemical
# Condition info: read-out: IC50
Recorded IC50, one value per entry.
Property: IC50 (µM)

1. Cc1cccc(C2/C(=N\Cn3nnc4ccccc43)NC(=S)N2c2ccc3[nH]cnc3c2)c1 (centres unmarked) : 1.3
2. Cc1ccc2occ(C3/C(=N/C4CCCCC4O)NC(=S)N3c3ccc4[nH]cnc4c3)c(=O)c2c1 (centres unmarked) : 5.8
3. O=C1N/C(=N/CCCc2ccccc2)C(c2ccc3[nH]ccc3c2)N1c1ccc2[nH]cnc2c1 (centres unmarked) : 0.004
4. O=C(C/N=C1\NC(=S)N(c2ccc3[nH]cnc3c2)C1c1cc2c(cc1Br)OCO2)NN1CCCCC1 (centres unmarked) : 2.2
5. CCCC/N=C1/NC(=O)N(CCCn2ccnc2)C1c1cc(F)cc(F)c1 (centres unmarked) : 5.8
6. O=C1N/C(=N/Cn2nnc3ccccc32)C(c2ccc3nsnc3c2)N1c1ccc2[nH]cnc2c1 (centres unmarked) : 0.4
7. C/N=C1/NC(=O)N(CCCn2ccnc2)C1c1ccc(O)cc1 (centres unmarked) : 5.8
8. O=C1N/C(=N\CCC(c2ccccc2)c2ccccc2)C(c2cccc(F)c2)N1CCCn1ccnc1 (centres unmarked) : 7.6

* * *

Recorded pIC50, one value per entry.
# Test system: hQC (Homo sapiens)
# Protocol summary: Fluorometric assay of glutaminyl cyclase (QC) inhibition, H-Gln-βNA or H-Gln-AMC substrate
# Format: biochemical
# Condition info: read-out: IC50
pIC50: −log10 of the molar value.
Property: pIC50

1) O=C1N/C(=N\C2CCc3ccccc32)C(c2ccnc3ccccc23)N1c1ccc2[nH]cnc2c1 (stereo not drawn) : 6.40
2) O=C1N/C(=N\C(c2ccccc2)c2ccccc2)C(c2ccccc2F)N1CCCn1ccnc1 (stereo not drawn) : 5.40
3) O=C1NC(c2cc(F)cc(F)c2)/C(=N\CC(O)c2ccccc2)N1c1ccc2[nH]cnc2c1 (stereo not drawn) : 6.40

* * *

# Test system: hQC (Homo sapiens)
# Protocol summary: Fluorometric assay of glutaminyl cyclase (QC) inhibition, H-Gln-βNA or H-Gln-AMC substrate
# Assay type: biochemical
# Condition info: read-out: IC50
# Description: All compounds were immediately tested regarding their activity as hQC inhibitors. The purity of the compounds was determined by HPLC-MS. The IC50 value against hQC was measured using the fluorescent assay. All measurements were performed with a BioAssay Reader HTS-7000Plus for microplates (Perkin Elmer) at 30° C. QC activity was evaluated fluorometrically using H-Gln-βNA. […] QC activity was determined from a standard curve of β-naphthylamine under assay conditions. […]
pIC50: −log10 of the molar value.
Property: pIC50

1. S=C1N/C(=N\c2cc(Cl)ccc2Cl)C(c2ccc(Cl)cc2)N1c1ccc2[nH]cnc2c1 (stereo not shown) : 5.17
2. Cc1ccc2occ(C3/C(=N/CCCN4CCCC4=O)NC(=O)N3c3ccc4[nH]cnc4c3)c(=O)c2c1 (stereo not shown) : 5.31
3. O=C(C/N=C1/NC(=O)N(c2ccc3[nH]cnc3c2)C1c1ccc2nsnc2c1)N1CCC(O)C1 (stereo not shown) : 5.31
4. O=C(CN=C1NC(=O)N(c2ccc3[nH]cnc3c2)C1c1ccc(Cl)c(F)c1)N1CCC(O)C1 (stereo not shown) : 5.17
5. S=C1N/C(=N\C2CCCc3ccccc32)C(c2cc(Br)cs2)N1c1ccc2nc[nH]c2c1 (stereo not shown) : 5.24
6. O=C(C/N=C1/NC(=O)N(CCCn2ccnc2)C1c1ccccc1)N1CCc2ccccc2C1 (stereo not shown) : 5.40
7. OC(CN=C1NC(=S)N(c2ccc3[nH]cnc3c2)C1c1cc(F)cc(F)c1)c1ccccc1 (stereo not shown) : 5.07
8. Oc1cccc(C2/C(=N/c3cc(Cl)ccc3Cl)NC(=S)N2c2ccc3[nH]cnc3c2)c1 (stereo not shown) : 5.12
9. CC1=CC(C)C(C2/C(=N/C(C)(C)CC(C)(C)C)NC(=S)N2c2ccc3nc[nH]c3c2)CC1 (stereo not shown) : 5.24
10. CSc1ccc(C2C(=NCn3nnc4ccccc43)NC(=O)N2c2ccc3[nH]cnc3c2)cc1 (stereo not shown) : 5.89
11. O=C1N/C(=N\C2CCCCC2)C(c2cc(F)cc(F)c2)N1CCCn1ccnc1 (stereo not shown) : 5.09
12. O=C1N/C(=N\C2CCCCCC2)C(c2cc(Br)cc(Br)c2)N1c1ccc2nc[nH]c2c1 (stereo not shown) : 8.40
13. CC1=CC(C)C(C2/C(=N/c3ccccc3Br)NC(=S)N2c2ccc3[nH]cnc3c2)CC1 (stereo not shown) : 5.03
14. S=C1N/C(=N\C(Cc2ccccc2)c2ccccc2)C(c2cc3c(cc2Br)OCO3)N1c1ccc2[nH]cnc2c1 (stereo not shown) : 5.03
15. O=C1N/C(=N\c2ccc3c(c2)OCCO3)C(c2ccc(Cl)c(F)c2)N1CCCn1ccnc1 (stereo not shown) : 5.31
16. COC(=O)C(C)/N=C1/NC(=S)N(c2ccc3[nH]cnc3c2)C1c1c(F)ccc(Cl)c1F (stereo not shown) : 5.03
17. O=C1N/C(=N\Cc2ccccc2)C(c2cccc(F)c2F)N1CCCn1ccnc1 (stereo not shown) : 5.24
18. S=C1N/C(=N/Cc2ccccc2)C(c2cccc(Br)c2)N1c1ccc2[nH]cnc2c1 (stereo not shown) : 5.17
19. O=C1N/C(=N\C(c2ccccc2)c2ccccc2)C(CO)N1CCCn1ccnc1 (stereo not shown) : 5.17

* * *

# Test system: hQC (Homo sapiens, UniProt Q16769)
# Sequence (Q16769 29-361): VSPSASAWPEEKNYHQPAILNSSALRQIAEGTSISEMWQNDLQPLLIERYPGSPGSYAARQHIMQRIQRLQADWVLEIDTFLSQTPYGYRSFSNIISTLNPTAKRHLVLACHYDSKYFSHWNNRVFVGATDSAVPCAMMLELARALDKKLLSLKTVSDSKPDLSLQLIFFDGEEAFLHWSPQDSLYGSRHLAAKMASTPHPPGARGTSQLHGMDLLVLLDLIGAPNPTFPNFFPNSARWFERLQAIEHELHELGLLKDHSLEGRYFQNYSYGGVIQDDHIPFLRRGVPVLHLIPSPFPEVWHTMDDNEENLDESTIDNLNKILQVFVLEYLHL
# Protocol summary: Fluorometric assay of glutaminyl cyclase (QC) inhibition, H-Gln-βNA or H-Gln-AMC substrate
# Assay type: biochemical
# Condition info: read-out: IC50
Recorded IC50, one value per entry.
Property: IC50 (µM)

1. O=C1N/C(=N\Cc2ccccc2)C(c2ccccc2Cl)N1CCCn1ccnc1 (stereo not shown) : 4
2. S=C1NC(=NCn2nnc3ccccc32)C(c2ccnc3ccccc23)N1c1ccc2nc[nH]c2c1 (stereo not shown) : 2.2
3. CC(C)CC(C)N=C1NC(=O)N(c2ccc3[nH]cnc3c2)C1c1ccccc1C(F)(F)F (stereo not shown) : 6.7
4. CC1=CC(C)C(C2/C(=N/CC(=O)N3CCC(O)CC3)NC(=O)N2c2ccc3nc[nH]c3c2)CC1 (stereo not shown) : 7.6
5. O=C1N/C(=N\C2CCCC2)C(c2ccc(N3CCCC3)cc2)N1c1ccc2[nH]cnc2c1 (stereo not shown) : 0.004
6. CC(/N=C1\NC(=O)N(c2ccc3[nH]cnc3c2)C1c1ccccc1C(F)(F)F)C(C)(C)C (stereo not shown) : 0.004
7. O=C(C/N=C1\C(c2cccc(Br)c2)NC(=S)N1c1ccc2[nH]cnc2c1)N1CCSCC1 (stereo not shown) : 2.2
8. CC(CC1/C(=N/C2CCCc3ccccc32)NC(=O)N1c1ccc2[nH]cnc2c1)CC(C)(C)C (stereo not shown) : 9.4
9. Cc1cccc(C2C(=NCCc3c[nH]c4ccccc34)NC(=O)N2CCCn2ccnc2)c1O (stereo not shown) : 2.2
10. O=C1NC(=Nc2ccc(Oc3ccccc3)cc2)C(CO)N1CCCn1ccnc1 (stereo not shown) : 8.5
11. COc1ccc(C2C(=NCC(=O)N3CCSCC3)NC(=S)N2c2ccc3[nH]cnc3c2)c(F)c1 (stereo not shown) : 6.7
12. O=C1N/C(=N\C(c2ccccc2)c2ccccc2)C(c2cccc(F)c2F)N1CCCn1ccnc1 (stereo not shown) : 7.6
13. CCC1/C(=N\CCc2c[nH]c3ccccc23)NC(=O)N1CCCn1ccnc1 (stereo not shown) : 5.8
